tgt: full length (1-55) HIV-1 NCp7 (Human immunodeficiency virus type 1 group M subtype B, UniProt P12493)
Construct: recombinant full length (1-55) HIV-1 NCp7 proteins; made in house
assay text: Electromobility Shift Assay (EMSA), competition for ssDNA binding
test conditions: NCp7 300 nM, M13mp18 ssDNA; positive = >25% inhibition at 100µM

compound	EMSA screening results
O=C(NCC1CC1)c1nc(-c2ccccn2)nc(O)c1O [Compound 3]	Negative
O=C(OC1CCCCC1)c1nc(-c2ccccn2)nc(O)c1O [Compound 13]	Negative
O=C(OCC1CCCCC1)c1nc(-c2ccccn2)nc(O)c1O [Compound 2]	Negative
